assay: xn = mol fraction of the nth substance listed, in the solute-free solvent; conditions: 283.15 K; x2 = 0.9
VALUE_KIND: solubility (g/100 g solution)
Would you mind answering with just the numeric figure?

MOLECULE: Cl.NC1CCSC1=O (centres undefined) + CO + CC#N
solubility (g/100 g solution): 6.22

Give the measured solubility (g/100 g solution) for CC(C)C(=O)Nc1ccc([N+](=O)[O-])c(C(F)(F)F)c1 + CC(C)=O + CC(C)O
54.5

Look up and report measured solubility (g/100 g solution) for this entry: CC(C)C(=O)Nc1ccc([N+](=O)[O-])c(C(F)(F)F)c1 + CCOC(C)=O + CC(C)O
37.9

State its solubility (g/100 g solution) for this molecule: CC(C)C(=O)Nc1ccc([N+](=O)[O-])c(C(F)(F)F)c1 + C1CCOC1 + CC(C)O
57.1

---

experiment: xn = mol fraction of the nth substance listed, in the solute-free solvent; conditions: 308.15 K; x2 = 0.04165
VALUE_KIND: solubility (g/100 g solution)
# answer = number (no unit)

COMPOUND: O=C1C=CC(=O)N1c1ccccc1Br + CCO + O
solubility (g/100 g solution): 2.03
--
COMPOUND: Nc1ncc(Br)nc1Br + CCO + O
solubility (g/100 g solution): 0.0494
--
COMPOUND: CC(C)C(=O)Nc1ccc([N+](=O)[O-])c(C(F)(F)F)c1 + CCO + O
solubility (g/100 g solution): 0.0129
--
COMPOUND: Nc1cc(-c2ccncc2)c[nH]c1=O + CCO + O
solubility (g/100 g solution): 0.00288

Look up and report measured solubility (g/100 g solution) for this entry: O=c1cc(CBr)c2ccccc2[nH]1 + CCO + O
0.0598

---

test: xn = mol fraction of the nth substance listed, in the solute-free solvent; details: 288.15 K; x2 = 0.7788
VALUE_KIND: solubility (g/100 g solution)
Enter the number alone.

COMPOUND: Nc1ncc(Br)nc1Br + CCO + O
solubility (g/100 g solution): 0.59

COMPOUND: CC(C)C(=O)Nc1ccc([N+](=O)[O-])c(C(F)(F)F)c1 + CCO + O
solubility (g/100 g solution): 18.4

COMPOUND: O=c1cc(CBr)c2ccccc2[nH]1 + CCO + O
solubility (g/100 g solution): 0.12

COMPOUND: Nc1cc(-c2ccncc2)c[nH]c1=O + CCO + O
solubility (g/100 g solution): 0.0148

Moving on to another compound below.
Please indicate solubility (g/100 g solution) recorded for O=C1C=CC(=O)N1c1ccccc1Br + CCO + O
8.21

---

experiment: xn = mol fraction of the nth substance listed, in the solute-free solvent; conditions: 308.15 K; x2 = 0.3103
The label depends only on solubility (g/100 g solution): criterion met if it is at least 0.4, criterion not met if it is smaller.

Consider the following illustrative entries.
MOLECULE: Nc1ncc(Br)nc1Br + CC(C)O + O
CLASS_LABEL: criterion not met
//
MOLECULE: O=c1cc(CBr)c2ccccc2[nH]1 + CC(C)O + O
CLASS_LABEL: criterion not met
//
MOLECULE: O=c1cc(CBr)c2ccccc2[nH]1 + CCCO + O
CLASS_LABEL: criterion not met
//
MOLECULE: O=C1C=CC(=O)N1c1ccccc1Br + CC(C)O + O
CLASS_LABEL: criterion met

Next item in the queue.
I'd appreciate it if you could say whether CC(C)C(=O)Nc1ccc([N+](=O)[O-])c(C(F)(F)F)c1 + CC(C)O + O has solubility (g/100 g solution) at least equal to 0.4.
criterion met

---

assay: xn = mol fraction of the nth substance listed, in the solute-free solvent; settings: 313.15 K; x2 = 0.1
VALUE_KIND: solubility (g/100 g solution)
Just the number, please, no unit attached.

COMPOUND: CC(C)C(=O)Nc1ccc([N+](=O)[O-])c(C(F)(F)F)c1 + CCOC(C)=O + CC(C)O
solubility (g/100 g solution): 48.3

COMPOUND: Cl.NC1CCSC1=O (centres undefined) + CO + CC#N
solubility (g/100 g solution): 0.177

COMPOUND: CC(C)C(=O)Nc1ccc([N+](=O)[O-])c(C(F)(F)F)c1 + C1CCOC1 + CC(C)O
solubility (g/100 g solution): 47.9

Turning to the following compound.
Supply measured solubility (g/100 g solution) of CC(C)C(=O)Nc1ccc([N+](=O)[O-])c(C(F)(F)F)c1 + CC(C)=O + CC(C)O in your reply.
48.4

---

Below, each of the molecules is paired with its reported solubility (g/100 g solution) value.
assay: xn = mol fraction of the nth substance listed, in the solute-free solvent; settings: 308.15 K; x2 = 0.1139
Enter a number only.

Please review the entries below; each comes with its answer.
MOLECULE: O=c1cc(CBr)c2ccccc2[nH]1 + CCCO + O
VALUE_KIND: solubility (g/100 g solution)
NUMBER: 0.119
//
MOLECULE: O=C1C=CC(=O)N1c1ccccc1Br + CC(C)O + O
VALUE_KIND: solubility (g/100 g solution)
NUMBER: 4.86
//
MOLECULE: Nc1ncc(Br)nc1Br + CC(C)O + O
VALUE_KIND: solubility (g/100 g solution)
NUMBER: 0.165
//
MOLECULE: CC(C)C(=O)Nc1ccc([N+](=O)[O-])c(C(F)(F)F)c1 + CC(C)O + O
VALUE_KIND: solubility (g/100 g solution)
NUMBER: 0.505

API: the following record is the query input.
Retrieve solubility (g/100 g solution) measured for O=c1cc(CBr)c2ccccc2[nH]1 + CC(C)O + O and print it.
0.099

---

experiment: xn = mol fraction of the nth substance listed, in the solute-free solvent; details: 298.15 K; x2 = 0.2068
Everything with solubility (g/100 g solution) lower than 0.3 is N; everything else, including exactly 0.3, is Y.

Below are worked cases with known answers.
COMPOUND: Nc1ncc(Br)nc1Br + CCO + O
CLASS_LABEL: Y
//
COMPOUND: O=C1C=CC(=O)N1c1ccccc1Br + CCO + O
CLASS_LABEL: Y
//
COMPOUND: Nc1cc(-c2ccncc2)c[nH]c1=O + CCO + O
CLASS_LABEL: N
//
COMPOUND: CC(C)C(=O)Nc1ccc([N+](=O)[O-])c(C(F)(F)F)c1 + CCO + O
CLASS_LABEL: Y

Given O=c1cc(CBr)c2ccccc2[nH]1 + CCO + O , state whether its solubility (g/100 g solution) is at least 0.3.
N

---

assay: xn = mol fraction of the nth substance listed, in the solute-free solvent; settings: 293.15 K; x2 = 0.5
VALUE_KIND: solubility (g/100 g solution)

Give the reported value of solubility (g/100 g solution) for this record: CC(C)C(=O)Nc1ccc([N+](=O)[O-])c(C(F)(F)F)c1 + CCOC(C)=O + CC(C)O
44

Annotate the compound CC(C)C(=O)Nc1ccc([N+](=O)[O-])c(C(F)(F)F)c1 + CC(C)=O + CC(C)O with its measured solubility (g/100 g solution).
52.2

Identify solubility (g/100 g solution) associated with the compound CC(C)C(=O)Nc1ccc([N+](=O)[O-])c(C(F)(F)F)c1 + C1CCOC1 + CC(C)O
52.6

Determine its reported solubility (g/100 g solution): Cl.NC1CCSC1=O (centres undefined) + CO + CC#N
3.55

---

assay: xn = mol fraction of the nth substance listed, in the solute-free solvent; details: 303.15 K; x2 = 0.3
VALUE_KIND: solubility (g/100 g solution)
Simply state the number, no unit and no words.

Name the recorded solubility (g/100 g solution) of the compound listed here: Cl.NC1CCSC1=O (centres undefined) + CO + CC#N
1.22

---

Reported solubility (g/100 g solution) by item:
assay: xn = mol fraction of the nth substance listed, in the solute-free solvent; conditions: 323.15 K; x2 = 0.8
Form rule: numeric answer, no unit written next to it.

The following compounds have reported results that may help.
COMPOUND: CC(C)C(=O)Nc1ccc([N+](=O)[O-])c(C(F)(F)F)c1 + CC(C)=O + CC(C)O
solubility (g/100 g solution): 78.1
//
COMPOUND: CC(C)C(=O)Nc1ccc([N+](=O)[O-])c(C(F)(F)F)c1 + C1CCOC1 + CC(C)O
solubility (g/100 g solution): 77.1
//
COMPOUND: CC(C)C(=O)Nc1ccc([N+](=O)[O-])c(C(F)(F)F)c1 + CCOC(C)=O + CC(C)O
solubility (g/100 g solution): 62.9

Moving on to another compound below.
Return solubility (g/100 g solution) (reported value) for this compound: Cl.NC1CCSC1=O (centres undefined) + CO + CC#N
10.9
